experimental.system: human FXR alpha ligand binding domain (Homo sapiens, UniProt Q96RI1)
Sequence (Q96RI1 187-472 isoform Q96RI1-2): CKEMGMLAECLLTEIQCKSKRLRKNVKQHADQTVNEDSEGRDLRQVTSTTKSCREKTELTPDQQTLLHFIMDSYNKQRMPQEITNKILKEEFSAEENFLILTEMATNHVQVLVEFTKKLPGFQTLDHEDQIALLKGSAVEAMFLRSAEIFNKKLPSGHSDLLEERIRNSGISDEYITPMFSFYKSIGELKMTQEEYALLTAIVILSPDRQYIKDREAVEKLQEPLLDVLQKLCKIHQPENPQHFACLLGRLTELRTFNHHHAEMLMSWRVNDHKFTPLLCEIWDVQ
test.description: FRET activity assay (ligand mediated cofactor peptide interaction, LANCE)
test.conditions: GST-FXR-LBD / biotinylated SRC-1 peptide (676-700), read-out: F EC50
experimental.readout: EC50 (nM)

Below: 4 compounds and their reported EC50.
O=C(O)c1ccc2nc([C@]3(O)CC[C@@H](OCc4c(C5CC5)cnn4-c4c(Cl)cccc4Cl)CC3)sc2c1 [Example 11-13]
110
NC(=O)c1cc(F)c2nc([C@]3(O)CC[C@@H](OCc4c(-c5c(Cl)cncc5Cl)noc4C4CC4)CC3)sc2c1 [Example 18]
98
O=C(O)c1ccc2nc([C@]3(O)CC[C@H](OCc4c(C5CCC(F)(F)CC5)noc4C4CC4)CC3)sc2c1 [Example 11-2]
8600
O=C(O)c1cc(F)c2nc([C@]3(O)CC[C@@H](OCc4c(-c5c(Cl)cncc5Cl)noc4C4CC4)CC3)sc2c1 [Example 11-34]
55

[A] O=C(O)c1cc(F)c2nc(C3(O)C[C@H]4CC[C@@H](C3)C4OCc3c(-c4c(Cl)cccc4Cl)noc3C3CC3)sc2c1 (single isomer, unassigned) [Example 11-55]
[B] CC(C)(Cc1cccc([C@]2(O)[C@@H]3CC[C@H]2C[C@H](OCc2c(-c4c(Cl)cccc4Cl)noc2C2CC2)C3)c1)C(=O)O [Example 11-53]
// select label with min value of measured EC50 from [ A , B ] # answer = label of selected item
A

* * *

experimental.system: human FXR alpha ligand binding domain (Homo sapiens, UniProt Q96RI1)
test.description: FRET activity assay (ligand mediated cofactor peptide interaction, LANCE)
test.conditions: GST-FXR-LBD / biotinylated SRC-1 peptide (676-700), read-out: F EC50
experimental.readout: EC50 (nM)

O[C@@]1(c2nc3ccc(Br)cc3s2)[C@@H]2CC[C@H]1C[C@H](OCc1c(-c3c(Cl)cccc3Cl)noc1C1CC1)C2
37
CC(C)n1nc(C(=O)O)c2ccc([C@]3(O)CC[C@@H](OCc4c(-c5c(Cl)cccc5Cl)noc4C4CC4)CC3)cc21
7
O=C(O)c1ccc2nc(C3(O)CC4(CC(OCc5c(-c6c(Cl)cccc6Cl)noc5C5CC5)C4)C3)sc2c1 (single isomer, unassigned) [Example 11-4a]
56
O=C(O)c1ccc2nc([C@]3(O)CC[C@@H](OCc4c(-c5c(Cl)cccc5Cl)noc4C4CC4)CC3)sc2c1F
25
O=C(O)c1cc2sc([C@]3(O)CC[C@@H](OCc4c(-c5ccccc5OC(F)F)noc4C4CC4)CC3)nc2cc1F
570
O=C(O)c1nsc2ccc([C@]3(O)CC[C@@H](OCc4c(-c5c(Cl)cccc5Cl)noc4C4CC4)CC3)cc12
120
O=C(O)c1ccc2nc(C3(O)CC4(CC(OCc5c(-c6c(Cl)cccc6Cl)noc5C5CC5)C4)C3)sc2c1 (single isomer, unassigned) [Example 11-4b]
120

[a] O=C(O)c1cc(F)c2nc([C@]3(O)[C@@H]4CC[C@H]3C[C@H](OCc3c(-c5c(Cl)c[n+]([O-])cc5Cl)noc3C3CC3)C4)sc2c1
[b] O=C(O)c1cc(F)c2nc([C@]3(O)CC4CC3CC4OCc3c(-c4c(Cl)cccc4Cl)noc3C3CC3)sc2c1 (single isomer, unassigned) [Example 11-48]
[c] O=C(O)c1cc(F)c2nc([C@]3(O)CC4CC3CC4OCc3c(-c4c(Cl)cccc4Cl)noc3C3CC3)sc2c1 (stereo partly drawn) [Example 11-49]
[d] CC(C)(O)c1cc(F)c2nc([C@]3(O)CC[C@@H](OCc4c(-c5c(Cl)cncc5Cl)noc4C4CC4)CC3)sc2c1
[e] O=C(O)c1cc(F)c2nc([C@]3(O)[C@@H]4CC[C@H]3CC(OCc3c(-c5c(Cl)cccc5Cl)noc3C3CC3)(C(F)F)C4)sc2c1 (single isomer, unassigned)
Exam item: list the entries in increasing order of EC50. Order the labels as requested and list them.
a, c, b, d, e

* * *

experimental.system: human FXR alpha ligand binding domain (Homo sapiens, UniProt Q96RI1)
Sequence (Q96RI1 187-472 isoform Q96RI1-2): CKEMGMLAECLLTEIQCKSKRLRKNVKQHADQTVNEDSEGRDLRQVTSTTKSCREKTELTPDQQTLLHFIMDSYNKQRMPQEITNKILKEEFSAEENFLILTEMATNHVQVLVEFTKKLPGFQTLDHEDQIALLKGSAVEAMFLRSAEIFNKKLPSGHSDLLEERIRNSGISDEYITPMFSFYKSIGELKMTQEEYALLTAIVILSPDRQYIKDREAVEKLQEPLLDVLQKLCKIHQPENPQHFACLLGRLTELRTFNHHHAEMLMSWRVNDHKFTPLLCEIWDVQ
test.description: FRET activity assay (ligand mediated cofactor peptide interaction, LANCE)
test.conditions: GST-FXR-LBD / biotinylated SRC-1 peptide (676-700), read-out: F EC50
pEC50: −log10 of the molar value.
experimental.readout: pEC50

Below: 5 molecules and their reported pEC50.
O=C(O)c1cc(F)c2nc([C@]3(O)[C@@H]4CC[C@H]3C[C@H](OCc3c(-c5c(Cl)cccc5Cl)noc3C3CC3)C4)sc2c1 [Example 11-27]
8.42
O=C(O)c1ccc2nc(C3(O)CCC(OCc4c(-c5c(Cl)cccc5Cl)noc4C4CC4)C3)sc2c1 (stereo not shown) [Example 11-57]
7.51
O=C(O)c1ccnc2cc([C@]3(O)CC[C@@H](OCc4c(-c5c(Cl)cccc5Cl)noc4C4CC4)CC3)ccc12 [Example 29]
7.29
Cn1cc(C(=O)O)c2ccc([C@]3(O)CC[C@@H](OCc4c(-c5c(Cl)cccc5Cl)noc4C4CC4)CC3)cc21 [Example 11-42]
7.70
O=C(O)Cc1ccc([C@]2(O)CC[C@@H](OCc3c(-c4c(Cl)cccc4Cl)noc3C3CC3)CC2)c(F)c1 [Example 11-8]
5.10

[a] O[C@@]1(c2cnc3nn[nH]c3c2)[C@@H]2CC[C@H]1C[C@H](OCc1c(-c3c(Cl)cccc3Cl)noc1C1CC1)C2 [Example 34]
[b] CC1(C)C[C@](O)(c2nc3c(F)cc(C(=O)O)cc3s2)CC[C@H]1OCc1c(-c2c(Cl)cccc2Cl)noc1C1CC1 (racemic) [Example 11-33]
// select label with min value of measured pEC50 from [ a , b ] # answer = label of selected item
b
(b: 7.44, a: 8.39)

[a] O=C(O)c1ccc2nc([C@]3(O)CC[C@@H](OCc4c(C5CCC6(CC5)CC6)noc4C4CC4)CC3)sc2c1 [Example 11-3]
[b] O=C(O)Cc1ccc(F)c([C@]2(O)CC[C@@H](OCc3c(-c4c(Cl)cccc4Cl)noc3C3CC3)CC2)c1 [Example 11-9]
[c] O=C(O)c1cc(F)c2nc([C@]3(O)[C@@H]4CC[C@H]3C[C@H](OCc3c(-c5ccccc5OC(F)F)noc3C3CC3)C4)sc2c1 [Example 11-28]
[d] OCc1ccc([C@]2(O)CC[C@@H](OCc3c(-c4c(Cl)cccc4Cl)noc3C3CC3)CC2)c(F)c1 [Example 9-6]
Exam item: list the entries in increasing order of pEC50. Order the labels as requested and list them.
a, d, b, c
(a: 5.89, d: 6.66, b: 7.33, c: 8.01)

* * *

experimental.system: human FXR alpha ligand binding domain (Homo sapiens, UniProt Q96RI1)
Construct: made in house; host or cells: E. coli BL21(DE3), vector pDEST15
Sequence (Q96RI1 187-472 isoform Q96RI1-2): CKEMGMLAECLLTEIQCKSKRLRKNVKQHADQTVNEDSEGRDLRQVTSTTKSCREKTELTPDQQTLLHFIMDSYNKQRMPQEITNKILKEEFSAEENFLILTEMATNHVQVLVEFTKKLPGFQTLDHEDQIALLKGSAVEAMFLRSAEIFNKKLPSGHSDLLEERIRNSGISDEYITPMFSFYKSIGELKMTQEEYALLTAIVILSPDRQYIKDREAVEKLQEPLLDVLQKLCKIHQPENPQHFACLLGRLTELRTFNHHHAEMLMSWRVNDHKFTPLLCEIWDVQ
test.description: FRET activity assay (ligand mediated cofactor peptide interaction, LANCE)
Type: biochemical
test.conditions: GST-FXR-LBD / biotinylated SRC-1 peptide (676-700), read-out: F EC50
pEC50: −log10 of the molar value.
experimental.readout: pEC50

Below: 4 molecules and their reported pEC50.
OC1(c2nc3ccccc3s2)C2CC3CC1CC(OCc1c(-c4c(Cl)cccc4Cl)noc1C1CC1)(C3)C2 (stereo not shown) [Example 24a]
7.31
CS(=O)(=O)NC(=O)c1cc(F)c2nc([C@]3(O)CC[C@@H](OCc4c(-c5c(Cl)cccc5Cl)noc4C4CC4)CC3)sc2c1
7.66
O=C(O)c1ccc2nc([C@]3(O)CC[C@@H](OCc4c(-c5ccccc5C5CC5)noc4C4CC4)CC3)sc2c1
6.00
O=C(O)Cc1csc([C@]2(O)[C@@H]3CC[C@H]2C[C@H](OCc2c(-c4c(Cl)cccc4Cl)noc2C2CC2)C3)n1
7.38

[1] O=C(O)c1cc(F)c2nc([C@]3(O)[C@@H]4CC[C@H]3C[C@H](OCc3c(-c5c(Cl)cncc5Cl)noc3C3CC3)C4)sc2c1
[2] N#Cc1ccc2nc([C@]3(O)[C@@H]4CC[C@H]3C[C@H](OCc3c(-c5c(Cl)cccc5Cl)noc3C3CC3)C4)sc2c1
[3] O=C(O)c1ccc2nc([C@]3(O)CC[C@@H](OCc4c(C5CCC(F)(F)CC5)noc4C4CC4)CC3)sc2c1
Order the records by pEC50, with each subsequent value no larger than the one before. Order the labels as requested and list them.
1, 2, 3
(1: 8.37, 2: 7.51, 3: 5.66)
